# Procedure summary: Cys-Lys stapling of unprotected peptides with unsymmetrical linker (1.5 equiv): Cys thiol displaces phthalimide from N-thiophthalimide (disulfide, ~1 min), then ring closure by Lys amine attack on pentafluorophenyl ester with DIPEA (4 equiv)
# Assay context: the molecule shown is the open-chain precursor; 37-membered ring; CH3CN:H2O 3:1; 25.0 °C; 0.167 h
Catalogue of molecules with associated ring closure, isolated yield
Recorded endpoint: ring closure, isolated yield (%)

{"columns": ["Molecule", "Experimental result"],
 "data": [
  ["CC[C@H](C)[C@H](NC(=O)[C@@H]1CCCN1C(=O)[C@H](CSS/C(=C/Cl)CCOc1ccccc1C(=O)Oc1c(F)c(F)c(F)c(F)c1F)NC(C)=O)C(=O)N[C@@H](CCSC)C(=O)N[C@@H](CCC(=O)O)C(=O)N[C@@H](CC(=O)O)C(=O)N[C@@H](CCCNC(=N)N)C(=O)N[C@@H](CCCCN)C(=O)N1CCC[C@H]1C(N)=O [Ac-Cys(S-linker 3i-OPfp)-Pro-Ile-Met-Glu-Asp-Arg-Lys-Pro-NH2]", 65],
  ["CC(=O)N[C@@H](CCC(N)=O)C(=O)N[C@@H](CO)C(=O)N[C@@H](CCC(N)=O)C(=O)N[C@@H](CCC(N)=O)C(=O)N[C@H](C(=O)N[C@@H](Cc1ccccc1)C(=O)N[C@@H](CSS/C(=C/Cl)CCOc1ccccc1C(=O)Oc1c(F)c(F)c(F)c(F)c1F)C(=O)N[C@@H](CC(N)=O)C(=O)N[C@@H](CC(C)C)C(=O)N[C@@H](Cc1c[nH]c2ccccc12)C(=O)N[C@@H](CCCNC(=N)N)C(=O)N[C@@H](CC(C)C)C(=O)N[C@@H](CC(C)C)C(=O)N[C@@H](CCCCN)C(=O)N[C@@H](CCC(N)=O)C(=O)N[C@@H](CC(N)=O)C(N)=O)[C@@H](C)O", 65],
  ["CC(=O)N[C@@H](CCC(N)=O)C(=O)N[C@@H](CO)C(=O)N[C@@H](CCC(N)=O)C(=O)N[C@@H](CCC(N)=O)C(=O)N[C@H](C(=O)N[C@@H](Cc1ccccc1)C(=O)N[C@@H](CSS/C(=C/Cl)CCCCCC(=O)Oc1c(F)c(F)c(F)c(F)c1F)C(=O)N[C@@H](CC(N)=O)C(=O)N[C@@H](CC(C)C)C(=O)N[C@@H](Cc1c[nH]c2ccccc12)C(=O)N[C@@H](CCCNC(=N)N)C(=O)N[C@@H](CC(C)C)C(=O)N[C@@H](CC(C)C)C(=O)N[C@@H](CCCCN)C(=O)N[C@@H](CCC(N)=O)C(=O)N[C@@H](CC(N)=O)C(N)=O)[C@@H](C)O", 78]
]}

---

# Procedure summary: Cys-Lys stapling of unprotected peptides with unsymmetrical linker (1.5 equiv): Cys thiol displaces phthalimide from N-thiophthalimide (disulfide, ~1 min), then ring closure by Lys amine attack on pentafluorophenyl ester with DIPEA (4 equiv)
# Assay context: the molecule shown is the open-chain precursor; 26-membered ring; CH3CN:H2O 3:1; 25.0 °C; 0.167 h
# reported ring closure, isolated yield; entries follow

{"columns": ["Compound", "ring closure, isolated yield"],
 "data": [
  ["CC(=O)N[C@@H](CCCCN)C(=O)N[C@@H](C)C(=O)N[C@@H](C)C(=O)N[C@@H](C)C(=O)N[C@@H](CSS/C(=C/Cl)c1cccc(C(=O)Oc2c(F)c(F)c(F)c(F)c2F)c1)C(=O)N[C@@H](Cc1ccccc1)C(N)=O [Ac-Lys-Ala-Ala-Ala-Cys(S-linker 3j-OPfp)-Phe-NH2]", "72%"],
  ["CC(=O)N[C@H](C(=O)N[C@@H](CO)C(=O)N[C@@H](Cc1ccccc1)C(=O)N[C@@H](CCCCN)C(=O)N[C@@H](CCC(N)=O)C(=O)N[C@@H](Cc1ccc(O)cc1)C(=O)N[C@@H](Cc1c[nH]c2ccccc12)C(=O)N[C@@H](CSS/C(=C/Cl)CCCC(=O)Oc1c(F)c(F)c(F)c(F)c1F)C(=O)N[C@@H](CC(C)C)C(=O)N[C@@H](CC(C)C)C(=O)N[C@@H](CO)C(=O)N[C@@H](CCCNC(=N)N)C(N)=O)[C@@H](C)O", "85%"],
  ["CC(=O)N[C@H](C(=O)N[C@@H](CO)C(=O)N[C@@H](Cc1ccccc1)C(=O)N[C@@H](CCCCN)C(=O)N[C@@H](CCC(N)=O)C(=O)N[C@@H](Cc1ccc(O)cc1)C(=O)N[C@@H](Cc1c[nH]c2ccccc12)C(=O)N[C@@H](CSS/C(=C/Cl)c1cccc(C(=O)Oc2c(F)c(F)c(F)c(F)c2F)c1)C(=O)N[C@@H](CC(C)C)C(=O)N[C@@H](CC(C)C)C(=O)N[C@@H](CO)C(=O)N[C@@H](CCCNC(=N)N)C(N)=O)[C@@H](C)O", "84%"],
  ["CC(=O)N[C@H](C(=O)N[C@@H](CO)C(=O)N[C@@H](Cc1ccccc1)C(=O)N[C@@H](CCCCN)C(=O)N[C@@H](CCC(N)=O)C(=O)N[C@@H](Cc1ccc(O)cc1)C(=O)N[C@@H](Cc1c[nH]c2ccccc12)C(=O)N[C@@H](CSS/C(=C/Cl)COCC(=O)Oc1c(F)c(F)c(F)c(F)c1F)C(=O)N[C@@H](CC(C)C)C(=O)N[C@@H](CC(C)C)C(=O)N[C@@H](CO)C(=O)N[C@@H](CCCNC(=N)N)C(N)=O)[C@@H](C)O", "78%"]
]}
